From: the supplement of paper PMC9233669

System: biotinyl-Phe-oxazolone
measurementProtocol: self-aminoacylation, catalytic enhancement (BFO) (fold over background); higher = more active; k-Seq, kA / k0A0; sequences stand for … in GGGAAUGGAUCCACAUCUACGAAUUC…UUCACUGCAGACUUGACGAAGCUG
Variants at the floor of the assay were thinned out.
Threshold rule: self-aminoacylation greater than or equal to 10 is YES; below that, NO.

[[record]]
primarysequence = "CCACACUUCAGGCAAUCGGUU [Fam1B.1 aminoacylation ribozyme variant]"
labelvalue = "NO"

[[record]]
primarysequence = "CCACACUUCAAGCAAUCGCAC [Fam1B.1 aminoacylation ribozyme variant]"
labelvalue = "NO"

[[record]]
primarysequence = "AGUACCCUGGUCAUGGAGUGA [Fam2.1 aminoacylation ribozyme variant]"
labelvalue = "YES"

[[record]]
primarysequence = "AAGUUUGAUAAAAGUCGCAAG [Fam3.1 aminoacylation ribozyme variant]"
labelvalue = "NO"

[[record]]
primarysequence = "AUUCACCUAUGUCUUCGGGUG [Fam2.2 aminoacylation ribozyme variant]"
labelvalue = "YES"

[[record]]
primarysequence = "CCACACUUCAAGCAAUCAGUC [Fam1B.1 aminoacylation ribozyme variant]"
labelvalue = "YES"

[[record]]
primarysequence = "GUACUUCAAACAAUCGGUGUG [Fam1A.1 aminoacylation ribozyme variant]"
labelvalue = "YES"

[[record]]
primarysequence = "AUUCUCCUUGGUCAUCGGGUG [Fam2.2 aminoacylation ribozyme variant]"
labelvalue = "YES"

[[record]]
primarysequence = "AUUACCCUGGCCAUCGGGUGA [Fam2.1 aminoacylation ribozyme variant]"
labelvalue = "YES"


====

Test system: biotinyl-Met-oxazolone
measurementProtocol: self-aminoacylation, catalytic enhancement (BMO) (fold over background); higher = more active; k-Seq, kA / k0A0; sequences stand for … in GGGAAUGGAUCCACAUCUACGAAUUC…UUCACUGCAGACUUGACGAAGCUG
Fewer inactive variants are shown than the library holds.
self-aminoacylation overview
reportedMetric: self-aminoacylation

[[record]]
primarysequence = "CCUCACUUCAAGCAAUCGGUU [Fam1B.1 aminoacylation ribozyme variant]"
measuredresult = 1.45

[[record]]
primarysequence = "CCACCCUUCAAGCAAUCAGUC [Fam1B.1 aminoacylation ribozyme variant]"
measuredresult = 0.672

[[record]]
primarysequence = "CCACACUUCGACCAAUCGGUC [Fam1B.1 aminoacylation ribozyme variant]"
measuredresult = 1.74

[[record]]
primarysequence = "CCACACAUCAAGCAAUCGGUG [Fam1B.1 aminoacylation ribozyme variant]"
measuredresult = 4.98

[[record]]
primarysequence = "AAGCUUGCAAAUAGUCGCAAG [Fam3.1 aminoacylation ribozyme variant]"
measuredresult = 2.53

[[record]]
primarysequence = "AUUACCCUGGUCAUCGGGUGC [Fam2.1 aminoacylation ribozyme variant]"
measuredresult = 39.2

[[record]]
primarysequence = "GUUCACCUAGGUCAUUGGGUG [Fam2.2 aminoacylation ribozyme variant]"
measuredresult = 2.21

[[record]]
primarysequence = "AUUCUCCUAGGUCUUCGGGUG [Fam2.2 aminoacylation ribozyme variant]"
measuredresult = 7.28

[[record]]
primarysequence = "AUUCCCCUAGGACAUCGGGUG [Fam2.2 aminoacylation ribozyme variant]"
measuredresult = 7.14

[[record]]
primarysequence = "CCACUCUUCACGCAAUCGGUC [Fam1B.1 aminoacylation ribozyme variant]"
measuredresult = 1.05

[[record]]
primarysequence = "AUUCACCUACGCCAUCGGGUG [Fam2.2 aminoacylation ribozyme variant]"
measuredresult = 3.6

[[record]]
primarysequence = "AUUCUCCUAGGUCAACGGGUG [Fam2.2 aminoacylation ribozyme variant]"
measuredresult = 6.57

[[record]]
primarysequence = "AUUCACCCAGAUCAUCGGGUG [Fam2.2 aminoacylation ribozyme variant]"
measuredresult = 1.82

[[record]]
primarysequence = "AAGUUUGCUAAUAGUACCAAG [Fam3.1 aminoacylation ribozyme variant]"
measuredresult = 1.22

[[record]]
primarysequence = "AUACUUCAAACAGUCGGUCUG [Fam1A.1 aminoacylation ribozyme variant]"
measuredresult = 0.965

[[record]]
primarysequence = "CUUCACUUAGGUCAUCGGGUG [Fam2.2 aminoacylation ribozyme variant]"
measuredresult = 4.3

[[record]]
primarysequence = "AAGUUUCCUAAUCGUCGCAAG [Fam3.1 aminoacylation ribozyme variant]"
measuredresult = 0.973

[[record]]
primarysequence = "AUUCACCUAUGUCUUCGGGUG [Fam2.2 aminoacylation ribozyme variant]"
measuredresult = 2.42

